Would you mind telling me the reported growth inhibition of each entry?
# EXPERIMENT SUMMARY: NCI Yeast Anticancer Drug Screen. Data for the cln2 rad14 strain (AID 165);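 further: 0% = growth equal to vehicle treated cultures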
# ASSAY SETUP: S. cerevisiae cln2 rad14 strain, at 50.0 µM, hits give high values
About 79,000 compounds went through this panel and 15% of them were active in at least one assay; those are over-represented in the sample as a whole.
Numbers only, in %.

Nc1ccc2ccccc2c1[N+](=O)[O-] | 17.5
C=CCN(CC=C)/N=N/c1nc[nH]c1C(N)=O | 5.75

// each listed compound needs a value for growth inhibition
1. C[N+](C)(Cc1cccc(Cl)c1)c1nnn[n-]1
2. Cc1ccc(N2CCN(c3ccc(C)cc3)C2=C2N(c3ccc(C)cc3)CCN2c2ccc(C)cc2)cc1
3. CN=C(NC)C(c1ccccc1)c1ccccc1
4. CCCCC1(CC)COC2(CCCC2)OC1
5. COc1ccc(/C=N/Nc2nc(C)c3c(n2)Nc2ccccc2NC3=O)cc1
6. Nc1ncc2c(ncn2CC(O)CO)n1 (stereo unspecified)

RESULT:
1. -22.6
2. 34.1
3. -15.8
4. 3.2
5. -1.95
6. 4.65

// each listed compound needs a value for growth inhibition
1. C1=C[CH]([Sn]([CH]2C=Cc3ccccc32)([CH]2C=Cc3ccccc32)[CH]2C=Cc3ccccc32)c2ccccc21 (stereo unspecified)
2. COC(=O)N/N=C/c1oc(-c2cccc([N+](=O)[O-])c2)c(-c2cccc([N+](=O)[O-])c2)c1[N+](=O)[O-]
3. CC(CN(C)C)CN1c2ccccc2Sc2ccccc21 (stereo unspecified)

RESULT:
-6.4
22.6
-2.95

###

# EXPERIMENT SUMMARY: NCI Yeast Anticancer Drug Screen. Data for the sgs1 mgt1 strain (AID 161);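 further: 0% = growth of cultures given vehicle only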
# ASSAY SETUP: S. cerevisiae sgs1 mgt1 strain, at 50.0 µM, hits give high values
Compounds without any hit were thinned out: in the full panel of roughly 79,000, 15% have a hit.
Would you mind telling me the reported growth inhibition of each entry?
One number for each entry, in %.

Some solved entries appear below for comparison.
COc1ccc2nccc(Cl)c2c1 | 1.6
COc1cccc(Oc2ccc(C)cc2)c1 | -18.6
N=c1ccccn1CC(O)COc1ccccc1 (stereo unspecified) | -1.6
CCC(CO)N1CNC(=S)NC1 (stereo unspecified) | 4.85
O=C(O)Cc1[nH]c(=O)[nH]c(=O)c1CCl | -10.1
N#Cc1ccccc1OCCCCCCCCCCOc1ccccc1C#N | -19.6
Cc1c(C)c(C)c2cc3c(C)c(C)c(C)c(C)c3cc2c1C | -8.5
Cn1ccc2c(C(=O)c3ccccc3)cccc2c1=O | -4.75
O=c1[nH]c(=O)c2[nH]c(=O)[nH]c2[nH]1 | -13.5
COc1ccc(COC=O)cc1 | -0.8

// each listed compound needs a value for growth inhibition
1. O=C(/C=C/NC(=O)OCc1ccccc1)OCc1ccccc1
2. Cc1cc(N=Nc2ccc(N(C)C)cc2)ccn1
3. CC(CN1CCCC1)(Oc1ccccc1)C(=O)c1ccccc1 (stereo unspecified)
4. CCOC(=O)c1ccccc1C(=O)c1ccccc1O

RESULT:
1. -0.9
2. 6.1
3. 15.1
4. -1.6

// each listed compound needs a value for growth inhibition
1. CCN(CC)CCOC(=O)c1c(C)cc(C)cc1C
2. C=CCSc1ncnc2nc[nH]c12
3. O=C(O)c1nn(-c2ccccc2)c2c1CSc1ccccc1-2
4. Cc1c(Cl)c(C)c(Cc2c(C)c(Cl)c(C)c(Cl)c2O)c(O)c1Cl

RESULT:
[4.9, 1.55, 25.6, -20.6]

// each listed compound needs a value for growth inhibition
1. Cc1nn(C(=O)c2ccccc2O)c2c1C(c1ccc(O)cc1)SC(N)=N2 (stereo unspecified)
2. O=C1/C(=C/c2ccccc2)SC(=S)N1C1c2ccccc2Oc2ccccc21
3. O=C(CN1C(=O)c2ccccc2C1=O)OC1C=CCCC1 (stereo unspecified)
4. CC1=NC(C(N)=O)C(=O)N1 (stereo unspecified)

RESULT:
1: 29.4; 2: 53.8; 3: 1.5; 4: -15.3
